system tested: HIV-integrase (Human immunodeficiency virus type 1 group M subtype B)
Construct: Recombinant integrase (0.26 ng) was incubated with the beads
measurement protocol: HIV-Integrase Inhibition Activity (SPA strand transfer assay)
measurement context: recombinant integrase, SPA beads, P33 labeled target DNA
measured parameter: IC50

Consider the following illustrative entries.
compound	result
O=C(NCc1ccc(F)cc1)c1nc2n(c(=O)c1O)CCOC21CCN(C(=O)c2ccccc2)CC1	10 to 100 nM
Cc1ccc(F)cc1S(=O)(=O)N1CCC2(CC1)OCCn1c2nc(C(=O)NCc2ccc(F)cc2-n2ncnc2C)c(O)c1=O	10 to 100 nM
Cc1ncn(-c2cc(F)ccc2CNC(=O)c2nc3n(c(=O)c2O)CCOC32CCN(S(=O)(=O)c3cc(F)ccc3C)CC2)n1	1 to 10 nM

Input line: Item CS(=O)(=O)N1CCC2(C1)OCCn1c2nc(C(=O)NCc2ccc(F)cc2)c(O)c1=O (centres unmarked) : provide IC50
Output line: 1 to 10 nM

====

system tested: HIV-integrase (Human immunodeficiency virus type 1 group M subtype B, UniProt P12497)
Construct: Recombinant integrase (0.26 ng) was incubated with the beads
measurement protocol: HIV-Integrase Inhibition Activity (SPA strand transfer assay)
measurement context: recombinant integrase, SPA beads, P33 labeled target DNA
pIC50: −log10 of the molar value.
Attribute: pIC50

compound	pIC50
O=C(NCc1ccc(F)cc1-n1cncn1)c1nc2n(c(=O)c1O)CCOC21CCN(C(=O)c2ccccc2)CC1 [Example 9]	7.00 to 8.00
Cc1ncn(-c2cc(F)ccc2CNC(=O)c2nc3n(c(=O)c2O)CCOC32CCN(C(=O)C(=O)N(C)C)CC2)n1 [Example 32]	7.00 to 8.00
Cc1ccc(S(=O)(=O)N2CCC3(CC2)OCCn2c3nc(C(=O)NC(C)c3ccc(F)cc3)c(O)c2=O)cc1 (stereo not drawn) [Example 13]	7.00 to 8.00
COC(=O)N1CCC2(CC1)OCCn1c2nc(C(=O)NCc2ccc(F)cc2)c(O)c1=O [Example 4]	8.00 to 9.00
Cc1ccc(F)cc1S(=O)(=O)N1CCC2(CC1)OCCn1c2nc(C(=O)NCc2ccc(F)cc2)c(O)c1=O [Example 18]	8.00 to 9.00
O=C(NCc1ccc(F)cc1)c1nc2n(c(=O)c1O)CCOC21CCN(C(=O)OCc2ccccc2)C1 (stereo not drawn) [Example 36]	8.00 to 9.00
O=C(NCc1ccc(F)cc1)c1nc2n(c(=O)c1O)CCOC21CCN(C(=O)OCc2ccccc2)CC1 [Example 22]	8.00 to 9.00
CCOC(=O)N1CCC2(CC1)OCCn1c2nc(C(=O)NCc2ccc(F)cc2)c(O)c1=O [Example 31]	8.00 to 9.00

Turning now to a further compound:
Input line: Retrieve pIC50 measured for Cc1ncnn1-c1cc(F)ccc1CNC(=O)c1nc2n(c(=O)c1O)CCOC21CCN(C(=O)OC(C)C)C1 (stereo not drawn) [Example 43] and print it.
Output line: 7.00 to 8.00

====

system tested: HIV-integrase (Human immunodeficiency virus type 1 group M subtype B, UniProt P12497)
Construct: Recombinant integrase (0.26 ng) was incubated with the beads
measurement protocol: HIV-Integrase Inhibition Activity (SPA strand transfer assay)
measurement context: recombinant integrase, SPA beads, P33 labeled target DNA
pIC50: −log10 of the molar value.
Overview of recorded pIC50 for various compounds

Here are 6 compounds together with their reported answers.
compound	system tested	pIC50
Cc1ccc(S(=O)(=O)N2CCC3(CC2)OCCn2c3nc(C(=O)NCc3ccc(F)cc3)c(O)c2=O)cc1	HIV-integrase (Human immunodeficiency virus type 1 group M subtype B, UniProt P12497)	7.00 to 8.00
Cc1ccc(F)cc1S(=O)(=O)N1CCC2(CC1)OCCn1c2nc(C(=O)NCc2ccc(F)cc2-n2cncn2)c(O)c1=O	HIV-integrase (Human immunodeficiency virus type 1 group M subtype B, UniProt P12497)	8.00 to 9.00
Cc1ncnn1-c1cc(F)ccc1CNC(=O)c1nc2n(c(=O)c1O)CCOC21CCN(C(=O)C(=O)N(C)C)C1 (stereo not shown)	HIV-integrase (Human immunodeficiency virus type 1 group M subtype B, UniProt P12497)	7.00 to 8.00
Cc1ccc(S(=O)(=O)N2CCC3(CC2)OCCn2c3nc(C(=O)NCc3ccc(F)cc3-n3cncn3)c(O)c2=O)cc1	HIV-integrase (Human immunodeficiency virus type 1 group M subtype B, UniProt P12497)	8.00 to 9.00
Cc1ccc(S(=O)(=O)N2CCC3(CC2)OCCn2c3nc(C(=O)NCc3ccc(F)cc3S(=O)(=O)N3CCOCC3)c(O)c2=O)cc1	HIV-integrase (Human immunodeficiency virus type 1 group M subtype B, UniProt P12497)	7.00 to 8.00
CC(C)OC(=O)N1CCC2(C1)OCCn1c2nc(C(=O)NCc2ccc(F)cc2)c(O)c1=O (stereo not shown)	HIV-integrase (Human immunodeficiency virus type 1 group M subtype B, UniProt P12497)	8.00 to 9.00

Now consider a different compound.
Input line: Query pIC50 for COC(=O)C(=O)N1CCC2(CC1)OCCn1c2nc(C(=O)NCc2ccc(F)cc2-n2ncnc2C)c(O)c1=O
Output line: 7.00 to 8.00

====

system tested: purified integrase (Human immunodeficiency virus type 1 group M subtype B, UniProt P12497)
Construct: Recombinant integrase (0.26 ng) was incubated with the beads
measurement protocol: HIV-Integrase binding assay (competition with radiolabeled integrase inhibitor)
measurement context: competition with [3H]-labeled integrase inhibitor; Cheng and Prusoff
pKi: −log10 of the molar value.
measured parameter: pKi

Example cases with answers are listed next.
compound	pKi
Cc1ncnn1-c1cc(F)ccc1CNC(=O)c1nc2n(c(=O)c1O)CCCOC21CCN(C(=O)N(C)C)CC1 [Example 65]	7.30 to 8.52
O=C(NCc1ccc(F)cc1N1CCCCS1(=O)=O)c1nc2n(c(=O)c1O)CCCOC21CCN(C(=O)OCc2ccccc2)CC1 [Example 51]	7.30 to 8.52
Cc1ncnn1-c1cc(F)ccc1CNC(=O)c1nc2n(c(=O)c1O)CCCOC21CCN(C(=O)C(=O)N(C)C)CC1 [Example 74]	7.30 to 8.52
COC(=O)N1CCC2(CC1)OCCCn1c2nc(C(=O)NCc2ccc(F)cc2-n2ncnc2C)c(O)c1=O [Example 64]	7.30 to 8.52
CC(=O)N1CCC2(CC1)OCCCn1c2nc(C(=O)NCc2ccc(F)cc2-n2ncnc2C)c(O)c1=O [Example 63]	7.30 to 8.52

Please examine the following record next.
Input line: Look up and report measured pKi (purified integrase (Human immunodeficiency virus type 1 group M subtype B, UniProt P12497)) for the following compound: Cc1nnc(C(=O)N2CCC3(C2)OCCn2c3nc(C(=O)NCc3ccc(F)cc3-n3ncnc3C)c(O)c2=O)o1 (stereo not drawn) [Example 46]
Output line: 7.30 to 8.52

====

system tested: purified integrase (Human immunodeficiency virus type 1 group M subtype B, UniProt P12497)
Construct: Recombinant integrase (0.26 ng) was incubated with the beads
measurement protocol: HIV-Integrase binding assay (competition with radiolabeled integrase inhibitor)
measurement context: competition with [3H]-labeled integrase inhibitor; Cheng and Prusoff
measured parameter: Ki

Below, 5 compounds whose answers are already recorded.
compound	system tested	Ki
CN(C)C(=O)C(=O)N1CCC2(CC1)NCCn1c2nc(C(=O)NCc2ccc(F)cc2)c(O)c1=O [Example 34]	purified integrase (Human immunodeficiency virus type 1 group M subtype B, UniProt P12497)	3 to 50 nM
Cc1nnc(C(=O)N2CCC3(CC2)NCCn2c3nc(C(=O)NCc3ccc(F)cc3)c(O)c2=O)o1 [Example 35]	purified integrase (Human immunodeficiency virus type 1 group M subtype B, UniProt P12497)	3 to 50 nM
Cc1ncnn1-c1cc(F)ccc1CNC(=O)c1nc2n(c(=O)c1O)CCCOC21CCN(S(C)(=O)=O)CC1 [Example 62]	purified integrase (Human immunodeficiency virus type 1 group M subtype B, UniProt P12497)	3 to 50 nM
O=C(NCc1ccc(F)cc1)c1nc2n(c(=O)c1O)CCCOC21CCN(C(=O)OCc2ccccc2)CC1 [Example 48]	purified integrase (Human immunodeficiency virus type 1 group M subtype B, UniProt P12497)	1 to 3 nM
CN(C)C(=O)C(=O)N1CCC2(CC1)OCCCn1c2nc(C(=O)NCc2ccc(F)cc2)c(O)c1=O [Example 75]	purified integrase (Human immunodeficiency virus type 1 group M subtype B, UniProt P12497)	3 to 50 nM

Input line: Let me know recorded Ki for Cc1nnc(C(=O)N2CCC3(CC2)OCCCn2c3nc(C(=O)NCc3ccc(F)cc3-n3ncnc3C)c(O)c2=O)o1 [Example 67] , thanks.
Output line: 3 to 50 nM

Input line: Supply Ki value. Item: COC(=O)N1CCC2(CC1)COCCn1c2nc(C(=O)NCc2ccc(F)cc2-n2ncnc2C)c(O)c1=O [Example 72]
Output line: 3 to 50 nM

====

system tested: HIV-integrase (Human immunodeficiency virus type 1 group M subtype B, UniProt P12497)
Construct: Recombinant integrase (0.26 ng) was incubated with the beads
measurement protocol: HIV-Integrase Inhibition Activity (SPA strand transfer assay)
measurement context: recombinant integrase, SPA beads, P33 labeled target DNA
# IC50 per record follows

Use these answered entries as a reference point.
molecule	system tested	IC50
Cc1ncnn1-c1cc(F)ccc1CNC(=O)c1nc2n(c(=O)c1O)CCOC21CCN(C(=O)OCc2ccccc2)C1 (stereo not shown)	HIV-integrase (Human immunodeficiency virus type 1 group M subtype B, UniProt P12497)	0.01 to 0.1 µM
CN(C)C(=O)N1CCC2(CC1)OCCn1c2nc(C(=O)NCc2ccc(F)cc2-n2cncn2)c(O)c1=O	HIV-integrase (Human immunodeficiency virus type 1 group M subtype B, UniProt P12497)	0.001 to 0.01 µM
CN(C)C(=O)C(=O)N1CCC2(CC1)OCCn1c2nc(C(=O)NCc2ccc(F)cc2)c(O)c1=O	HIV-integrase (Human immunodeficiency virus type 1 group M subtype B, UniProt P12497)	0.001 to 0.01 µM
COC(=O)C(=O)N1CCC2(CC1)OCCn1c2nc(C(=O)NCc2ccc(F)cc2)c(O)c1=O	HIV-integrase (Human immunodeficiency virus type 1 group M subtype B, UniProt P12497)	0.001 to 0.01 µM
CC1CN(S(=O)(=O)c2cc(F)ccc2CNC(=O)c2nc3n(c(=O)c2O)CCCOC32CCN(C(=O)OCc3ccccc3)CC2)CC(C)N1 (stereo not shown)	HIV-integrase (Human immunodeficiency virus type 1 group M subtype B, UniProt P12497)	0.01 to 0.1 µM
O=C(NCc1ccc(F)cc1)c1nc2n(c(=O)c1O)CCOCC21CCN(C(=O)OCc2ccccc2)CC1	HIV-integrase (Human immunodeficiency virus type 1 group M subtype B, UniProt P12497)	0.01 to 0.1 µM

Input line: Identify measured IC50 corresponding to CS(=O)(=O)N1CCC2(CC1)OCCn1c2nc(C(=O)NCc2ccc(F)cc2-n2cncn2)c(O)c1=O
Output line: 0.001 to 0.01 µM

Input line: Supply reported IC50 belonging to this molecule: Cc1ncnn1-c1cc(F)ccc1CNC(=O)c1nc2n(c(=O)c1O)CCOC21CCN(C(=O)C(=O)N(C)C)CC1
Output line: 0.01 to 0.1 µM

Input line: Return the recorded IC50 value; entry: O=C(NCc1ccc(F)cc1)c1nc2n(c(=O)c1O)CCCCC21CCN(C(=O)OCc2ccccc2)CC1
Output line: 0.01 to 0.1 µM

Input line: Look up and report measured IC50 for this entry: CS(=O)(=O)N1CCC2(CC1)OCCn1c2nc(C(=O)NCc2ccc(F)cc2)c(O)c1=O
Output line: 0.001 to 0.01 µM

Input line: Identify measured IC50 associated with CN1CCN(S(=O)(=O)c2cc(F)ccc2CNC(=O)c2nc3n(c(=O)c2O)CCCOC32CCN(C(=O)OCc3ccccc3)CC2)CC1
Output line: 0.01 to 0.1 µM

Input line: Specify reported IC50 for the molecule shown: Cc1ccc(S(=O)(=O)N2CCC3(CC2)OCCn2c3nc(C(=O)NCc3ccc(F)cc3-n3nc(C)nc3C)c(O)c2=O)cc1
Output line: 0.01 to 0.1 µM

Input line: Give the value of IC50 reported for the following: Cc1ncnn1-c1cc(F)ccc1CNC(=O)c1nc2n(c(=O)c1O)CCOC21CCN(S(C)(=O)=O)C1 (stereo not shown)
Output line: 0.01 to 0.1 µM

Input line: Give the value of IC50 reported for the following: CCOC(=O)N1CCC2(CC1)OCCn1c2nc(C(=O)NCc2ccc(F)cc2-n2cnc(C)n2)c(O)c1=O
Output line: 0.001 to 0.01 µM

Input line: Please give measured IC50 of the following entry: CN(C)C(=O)N1CCC2(CC1)OCCn1c2nc(C(=O)NCc2ccc(F)cc2)c(O)c1=O
Output line: 0.001 to 0.01 µM

Input line: Retrieve IC50 measured for CN(C)S(=O)(=O)N1CCC2(CC1)OCCn1c2nc(C(=O)NCc2ccc(F)cc2-n2cncn2)c(O)c1=O and print it.
Output line: 0.001 to 0.01 µM

Input line: Quickly give me recorded IC50 for CN(C)S(=O)(=O)N1CCC2(CC1)OCCn1c2nc(C(=O)NCc2ccc(F)cc2)c(O)c1=O
Output line: 0.001 to 0.01 µM

Input line: State its IC50: Cc1ncnn1-c1cc(F)ccc1CNC(=O)c1nc2n(c(=O)c1O)CCOC21CCN(C(=O)OCc2ccccc2)CC1
Output line: 0.01 to 0.1 µM

Input line: Please supply the value of reported IC50 for the item Cc1ccc(S(=O)(=O)N2CCC3(CC2)OCCn2c3nc(C(=O)NCc3ccc(F)cc3-n3ncnc3C)c(O)c2=O)cc1
Output line: 0.01 to 0.1 µM

Input line: Read the entry COC(=O)N1CCC2(CC1)OCCn1c2nc(C(=O)NCc2ccc(F)cc2-n2cncn2)c(O)c1=O and write its reported IC50.
Output line: 0.001 to 0.01 µM

Input line: Report measured IC50; entry is O=C(O)C(=O)N1CCC2(CC1)OCCn1c2nc(C(=O)NCc2ccc(F)cc2)c(O)c1=O
Output line: 0.001 to 0.01 µM

Input line: Consider the molecule O=C(NCc1ccc(F)cc1S(=O)(=O)N1CCOCC1)c1nc2n(c(=O)c1O)CCCOC21CCN(C(=O)OCc2ccccc2)CC1 and give its recorded IC50.
Output line: 0.01 to 0.1 µM

Input line: Provide only the value of recorded IC50 for CNC(=O)c1nc2n(c(=O)c1O)CCOC21CCN(S(=O)(=O)c2cc(F)ccc2C)CC1
Output line: ≥ 0.1 µM

Input line: Provide IC50 value for the following molecule: CN(C)C(=O)C(=O)N1CCC2(C1)OCCn1c2nc(C(=O)NCc2ccc(F)cc2)c(O)c1=O (stereo not shown)
Output line: 0.001 to 0.01 µM

Input line: Provide IC50 value for the following molecule: Cc1ccc(S(=O)(=O)N2CCC3(CC2)OCCn2c3nc(C(=O)NCc3ccc(F)cc3-n3cnc(C)n3)c(O)c2=O)cc1
Output line: 0.01 to 0.1 µM
